Tested on: MCF7
Assay: Cytotoxicity against human topotecan-resistant MCF7 cells after 24 hrs by MTT assay
Format: functional, cell-based
Conditions: MCF7, 24 h
Each record is given true if its reported IC50 is strictly below 8 µM. Records at or above 8 µM are given false.

Illustrative cases are given below, each with its answer.
- CCCCCCCC/C=C\CCCCCCCC(=O)N/N=C(\CO)[C@]1(O)Cc2c(O)c3c(c(O)c2[C@@H](O[C@H]2C[C@H](N)[C@H](O)[C@H](C)O2)C1)C(=O)c1c(OC)cccc1C3=O.Cl [DOXORUBICIN OLEYLHYDRAZONE HYDROCHLORIDE]: false
- CC/C=C\C/C=C\C/C=C\CCCCCCCC(=O)N/N=C(\CO)[C@]1(O)Cc2c(O)c3c(c(O)c2[C@@H](O[C@H]2C[C@H](N)[C@H](O)[C@H](C)O2)C1)C(=O)c1c(OC)cccc1C3=O.Cl: true
- COc1cccc2c1C(=O)c1c(O)c3c(c(O)c1C2=O)C[C@@](O)(/C(CO)=N/NC(=O)CCCCC(=O)O[C@@H]1C[C@H](C)CC[C@H]1C(C)C)C[C@@H]3O[C@H]1C[C@H](N)[C@H](O)[C@H](C)O1.Cl: true

Okay, next one:
INPUT: Find out if reported IC50 for COc1cccc2c1C(=O)c1c(O)c3c(c(O)c1C2=O)C[C@@](O)(/C(CO)=N/NC(=O)CCCCCCCCCCC(=O)O[C@@H]1C[C@H](C)CC[C@H]1C(C)C)C[C@@H]3O[C@H]1C[C@H](N)[C@H](O)[C@H](C)O1.Cl is less than 8 µM
OUTPUT: true

* * *

Test system: HL-60
Test: Cytotoxicity against human HL60 cells assessed as increase in ROS production at 5 uM after 72 hrs by NBT reduction assay relative to control
Format: functional
Mark F for Activity values under 4%, and T for everything at or above.

* COc1cccc2c1C(=O)c1c(O)c3c(c(O)c1C2=O)C[C@@](O)(/C(CO)=N/NC(=O)CCCCCCCC(=O)O[C@@H]1C[C@H](C)CC[C@H]1C(C)C)C[C@@H]3O[C@H]1C[C@H](N)[C@H](O)[C@H](C)O1.Cl | T

INPUT: Is reported Activity greater than or equal to 4% here: COc1cccc2c1C(=O)c1c(O)c3c(c(O)c1C2=O)C[C@@](O)(/C(CO)=N/NC(=O)CCCCC(=O)O[C@@H]1C[C@H](C)CC[C@H]1C(C)C)C[C@@H]3O[C@H]1C[C@H](N)[C@H](O)[C@H](C)O1.Cl
OUTPUT: T

INPUT: Is reported Activity greater than or equal to 4% here: CCCCC/C=C\C/C=C\CCCCCCCC(=O)N/N=C(\CO)[C@]1(O)Cc2c(O)c3c(c(O)c2[C@@H](O[C@H]2C[C@H](N)[C@H](O)[C@H](C)O2)C1)C(=O)c1c(OC)cccc1C3=O.Cl
OUTPUT: F

INPUT: Is reported Activity greater than or equal to 4% here: COc1cccc2c1C(=O)c1c(O)c3c(c(O)c1C2=O)C[C@@](O)(C(=O)CO)C[C@@H]3O[C@H]1C[C@H](N)[C@H](O)[C@H](C)O1.Cl [DOXORUBICIN HYDROCHLORIDE]
OUTPUT: T

INPUT: Is reported Activity greater than or equal to 4% here: CC/C=C\C/C=C\C/C=C\CCCCCCCC(=O)N/N=C(\CO)[C@]1(O)Cc2c(O)c3c(c(O)c2[C@@H](O[C@H]2C[C@H](N)[C@H](O)[C@H](C)O2)C1)C(=O)c1c(OC)cccc1C3=O.Cl
OUTPUT: F

INPUT: Is reported Activity greater than or equal to 4% here: CCCCCCCCCCCCCCCCC(=O)N/N=C(\CO)[C@]1(O)Cc2c(O)c3c(c(O)c2[C@@H](O[C@H]2C[C@H](N)[C@H](O)[C@H](C)O2)C1)C(=O)c1c(OC)cccc1C3=O.Cl [DOXORUBICIN HEPTADECANOYL HYDRAZONE]
OUTPUT: F

INPUT: Is reported Activity greater than or equal to 4% here: COc1cccc2c1C(=O)c1c(O)c3c(c(O)c1C2=O)C[C@@](O)(/C(CO)=N/NC(=O)CCCCCCCCCCC(=O)O[C@@H]1C[C@H](C)CC[C@H]1C(C)C)C[C@@H]3O[C@H]1C[C@H](N)[C@H](O)[C@H](C)O1.Cl
OUTPUT: T

INPUT: Is reported Activity greater than or equal to 4% here: COc1cccc2c1C(=O)c1c(O)c3c(c(O)c1C2=O)C[C@@](O)(/C(CO)=N/NC(=O)CC(=O)O[C@@H]1C[C@H](C)CC[C@H]1C(C)C)C[C@@H]3O[C@H]1C[C@H](N)[C@H](O)[C@H](C)O1.Cl
OUTPUT: T

INPUT: Is reported Activity greater than or equal to 4% here: COc1cccc2c1C(=O)c1c(O)c3c(c(O)c1C2=O)C[C@@](O)(/C(CO)=N/NC(=O)CCCCCCCCCCC(=O)O[C@H]1C[C@H]2CC[C@]1(C)C2(C)C)C[C@@H]3O[C@H]1C[C@H](N)[C@H](O)[C@H](C)O1.Cl
OUTPUT: T

* * *

# IC50 listing for each entry below
Experiment: Cytotoxicity against human vinblastine-resistant KBV1 cells after 24 hrs by MTT assay
Format: functional, cell-based
Details: KB-V1, 24 h
Value expressed in µM; do not type the unit.

* COc1cccc2c1C(=O)c1c(O)c3c(c(O)c1C2=O)C[C@@](O)(/C(CO)=N/NC(=O)CC(=O)O[C@@H]1C[C@H](C)CC[C@H]1C(C)C)C[C@@H]3O[C@H]1C[C@H](N)[C@H](O)[C@H](C)O1.Cl | 17.8
* CCCCCCCC/C=C\CCCCCCCC(=O)N/N=C(\CO)[C@]1(O)Cc2c(O)c3c(c(O)c2[C@@H](O[C@H]2C[C@H](N)[C@H](O)[C@H](C)O2)C1)C(=O)c1c(OC)cccc1C3=O.Cl [DOXORUBICIN OLEYLHYDRAZONE HYDROCHLORIDE] | 32.5
* CCCCCCCCCCCCCCCCC(=O)N/N=C(\CO)[C@]1(O)Cc2c(O)c3c(c(O)c2[C@@H](O[C@H]2C[C@H](N)[C@H](O)[C@H](C)O2)C1)C(=O)c1c(OC)cccc1C3=O.Cl [DOXORUBICIN HEPTADECANOYL HYDRAZONE] | 42.9

Consider the additional molecule presented here.
INPUT: Fill in the blank: the reported IC50 of COc1cccc2c1C(=O)c1c(O)c3c(c(O)c1C2=O)C[C@@](O)(/C(CO)=N/NC(=O)CCCCCCCC(=O)O[C@@H]1C[C@H](C)CC[C@H]1C(C)C)C[C@@H]3O[C@H]1C[C@H](N)[C@H](O)[C@H](C)O1.Cl is ____.
OUTPUT: 79.6

* * *

Tested on: 518A2
Test: Induction of apoptosis in human 518A2 cells assessed as appearance of intact mitochondria in cytosol at 5 uM after 18 hrs using JC1 dye relative to control
Assay type: functional
observation type: Activity (%)
Value expressed in %; do not type the unit.

• COc1cccc2c1C(=O)c1c(O)c3c(c(O)c1C2=O)C[C@@](O)(/C(CO)=N/NC(=O)CCCCCCCCCCC(=O)O[C@@H]1C[C@H](C)CC[C@H]1C(C)C)C[C@@H]3O[C@H]1C[C@H](N)[C@H](O)[C@H](C)O1.Cl = 71

Consider the additional molecule presented here.
INPUT: Any idea what Activity came out for CCCCCCCC/C=C\CCCCCCCC(=O)N/N=C(\CO)[C@]1(O)Cc2c(O)c3c(c(O)c2[C@@H](O[C@H]2C[C@H](N)[C@H](O)[C@H](C)O2)C1)C(=O)c1c(OC)cccc1C3=O.Cl [DOXORUBICIN OLEYLHYDRAZONE HYDROCHLORIDE] on 518A2?
OUTPUT: 99

* * *

Test system: HL-60
Test: Induction of apoptosis in human HL60 cells assessed as appearance of intact mitochondria in cytosol at 5 uM after 6 hrs using JC1 dye relative to control
Type: functional
observation type: Activity

INPUT: Fill in the blank: the reported Activity of COc1cccc2c1C(=O)c1c(O)c3c(c(O)c1C2=O)C[C@@](O)(/C(CO)=N/NC(=O)CCCCCCCCCCC(=O)O[C@H]1C[C@H]2CC[C@]1(C)C2(C)C)C[C@@H]3O[C@H]1C[C@H](N)[C@H](O)[C@H](C)O1.Cl is ____.
OUTPUT: 78%

INPUT: Fill in the blank: the reported Activity of COc1cccc2c1C(=O)c1c(O)c3c(c(O)c1C2=O)C[C@@](O)(/C(CO)=N/NC(=O)CC(=O)O[C@@H]1C[C@H](C)CC[C@H]1C(C)C)C[C@@H]3O[C@H]1C[C@H](N)[C@H](O)[C@H](C)O1.Cl is ____.
OUTPUT: 76%

INPUT: Fill in the blank: the reported Activity of CCCCC/C=C\C/C=C\CCCCCCCC(=O)N/N=C(\CO)[C@]1(O)Cc2c(O)c3c(c(O)c2[C@@H](O[C@H]2C[C@H](N)[C@H](O)[C@H](C)O2)C1)C(=O)c1c(OC)cccc1C3=O.Cl is ____.
OUTPUT: 88%

INPUT: Fill in the blank: the reported Activity of CCCCCCCC/C=C\CCCCCCCC(=O)N/N=C(\CO)[C@]1(O)Cc2c(O)c3c(c(O)c2[C@@H](O[C@H]2C[C@H](N)[C@H](O)[C@H](C)O2)C1)C(=O)c1c(OC)cccc1C3=O.Cl [DOXORUBICIN OLEYLHYDRAZONE HYDROCHLORIDE] is ____.
OUTPUT: 103%

INPUT: Fill in the blank: the reported Activity of COc1cccc2c1C(=O)c1c(O)c3c(c(O)c1C2=O)C[C@@](O)(C(=O)CO)C[C@@H]3O[C@H]1C[C@H](N)[C@H](O)[C@H](C)O1.Cl [DOXORUBICIN HYDROCHLORIDE] is ____.
OUTPUT: 83%
